Data origin: patent US8530667B2

pest or weed control at 125 g/ha values for the compounds below.
- Test system: Digitaria sanguinalis (DIGSA)
- Assay Summary: Example A post-emergence herbicidal activity, glasshouse pot test
- Format: in vivo
- Condition Parameters: Rate 125 g/ha, evaluated 14 or 15 days later, read-out: Post-Emergence Activity DIGSA (100=total damage to plant; 0=no damage to plant)
Observable: pest or weed control at 125 g/ha (%)

Compound: COc1ccc(-c2nc(C3C(=O)[C@@H]4[C@H](C3=O)[C@H]3CC[C@@H]4O3)c(C)s2)cc1 (stereo partly drawn) [Compound T21]
Observable: pest or weed control at 125 g/ha
Unit Tag: %
Obs Value: 80

Compound: Cc1sc(-c2ccc(Cl)nc2)nc1C1C(=O)[C@@H]2[C@H](C1=O)[C@H]1CC[C@@H]2O1 (stereo partly drawn) [Compound T30]
Observable: pest or weed control at 125 g/ha
Unit Tag: %
Obs Value: 70

Compound: Cc1sc(-c2ccc(Cl)cc2)nc1C1C(=O)[C@@H]2[C@H](C1=O)[C@H]1CC[C@@H]2O1 (stereo partly drawn) [Compound T22]
Observable: pest or weed control at 125 g/ha
Unit Tag: %
Obs Value: 100

Compound: Cc1sc(Br)cc1C1C(=O)[C@@H]2[C@H](C1=O)[C@H]1CC[C@@H]2O1 (stereo partly drawn) [Compound T5]
Observable: pest or weed control at 125 g/ha
Unit Tag: %
Obs Value: 30

Compound: Cc1sc(-c2ccccn2)cc1C1C(=O)[C@@H]2[C@H](C1=O)[C@H]1CC[C@@H]2O1 (stereo partly drawn) [Compound T6]
Observable: pest or weed control at 125 g/ha
Unit Tag: %
Obs Value: 20

Compound: Cc1csc(C)c1C1C(=O)[C@@H]2[C@H](C1=O)[C@H]1CC[C@@H]2O1 (stereo partly drawn) [Compound T10]
Observable: pest or weed control at 125 g/ha
Unit Tag: %
Obs Value: 40

====

Entries and their pest or weed control at 250 g/ha values follow.
- Test system: Alopecurus myosuroides (ALOMY)
- Assay Summary: Example B pre-emergence herbicidal activity, glasshouse pot test
- Format: in vivo
- Condition Parameters: 312 h, Rate 250 g/ha, evaluated after 13 days, read-out: Pre-Emergence Activity ALOMY (100=total damage to plant; 0=no damage to plant)

Compound: Cc1sc(-c2cccs2)nc1C1C(=O)[C@@H]2[C@H](C1=O)[C@H]1CC[C@@H]2O1 (stereo partly drawn)
pest or weed control at 250 g/ha: 0%
--
Compound: Cc1sc(-c2ccc(Cl)c(Cl)c2)nc1C1C(=O)[C@@H]2[C@H](C1=O)[C@H]1CC[C@@H]2O1 (stereo partly drawn)
pest or weed control at 250 g/ha: 60%
--
Compound: CC(=O)OC1=C(c2nc(-c3ccc(Br)cn3)sc2C)C(=O)[C@H]2[C@@H]1[C@@H]1CC[C@H]2O1 (racemic)
pest or weed control at 250 g/ha: 50%

====

- Test system: Lolium perenne (LOLPE)
- Assay Summary: Example A pre-emergence herbicidal activity, glasshouse pot test
- Assay type: in vivo
- Condition Parameters: Rate 250 g/ha, evaluated 19 or 20 days later, read-out: Pre-Emergence Activity LOLPE (100=total damage to plant; 0=no damage to plant)
Measured pest or weed control at 250 g/ha values are reported for all entries that follow.

Compound: Cc1sc(-c2ccc(Cl)cc2)nc1C1C(=O)[C@H]2[C@@H]3CC[C@@](C)(O3)[C@H]2C1=O (mixture of isomers)
Test System: Lolium perenne (LOLPE)
pest or weed control at 250 g/ha [%]: 90
--
Compound: Cc1sc(-c2ccc(Br)cc2)nc1C1C(=O)[C@@H]2[C@H](C1=O)[C@H]1CC[C@@H]2O1 (stereo partly drawn)
Test System: Lolium perenne (LOLPE)
pest or weed control at 250 g/ha [%]: 100
--
Compound: Cc1csc(C)c1C1C(=O)[C@@H]2[C@H](C1=O)[C@H]1CC[C@@H]2O1 (stereo partly drawn)
Test System: Lolium perenne (LOLPE)
pest or weed control at 250 g/ha [%]: 20
--
Compound: COc1ccc(-c2nc(C3C(=O)[C@@H]4[C@H](C3=O)[C@H]3CC[C@@H]4O3)c(C)s2)cc1 (stereo partly drawn)
Test System: Lolium perenne (LOLPE)
pest or weed control at 250 g/ha [%]: 90
--
Compound: Cc1sc(-c2ccc(Cl)cc2)cc1C1=C(OC(=O)C(C)(C)C)[C@@H]2[C@H](C1=O)[C@H]1CC[C@@H]2O1 (racemic) [Compound P1]
Test System: Lolium perenne (LOLPE)
pest or weed control at 250 g/ha [%]: 30
--
Compound: Cc1sc(-c2ccc(Cl)cc2)nc1C1C(=O)[C@@H]2[C@H](C1=O)[C@H]1CC[C@@H]2O1 (stereo partly drawn)
Test System: Lolium perenne (LOLPE)
pest or weed control at 250 g/ha [%]: 100

====

- Test system: Avena fatua (AVEFA)
- Assay Summary: Example B pre-emergence herbicidal activity, glasshouse pot test
- Format: in vivo
- Condition Parameters: 312 h, Rate 250 g/ha, evaluated after 13 days, read-out: Pre-Emergence Activity AVEFA (100=total damage to plant; 0=no damage to plant)
Recorded pest or weed control at 250 g/ha, one value per entry.
Observable: pest or weed control at 250 g/ha (%)

Compound: Cc1sc(-c2ccc(Br)cn2)nc1C1=C(OC(=O)C2CC2)[C@@H]2[C@H](C1=O)[C@H]1CC[C@@H]2O1 (racemic)
Test System: Avena fatua (AVEFA)
Obs Value: 0

Compound: Cc1sc(-c2ccc(OC(F)F)cc2)nc1C1C(=O)[C@@H]2[C@H](C1=O)[C@H]1CC[C@@H]2O1 (stereo partly shown)
Test System: Avena fatua (AVEFA)
Obs Value: 30

Compound: CCc1sc(-c2ccc(SC)cc2)nc1C1C(=O)[C@@H]2[C@H](C1=O)[C@H]1CC[C@@H]2O1 (stereo partly shown)
Test System: Avena fatua (AVEFA)
Obs Value: 0

Compound: Cc1sc(-c2ccc(C(C)C)cc2)nc1C1C(=O)[C@@H]2[C@H](C1=O)[C@H]1CC[C@@H]2O1 (stereo partly shown)
Test System: Avena fatua (AVEFA)
Obs Value: 90

Compound: Cc1sc(-c2ccc(Br)cn2)nc1C1C(=O)[C@@H]2[C@H](C1=O)[C@H]1CC[C@@H]2O1 (stereo partly shown)
Test System: Avena fatua (AVEFA)
Obs Value: 0

Compound: CC(=O)OC1=C(c2nc(-c3ccc(Br)cn3)sc2C)C(=O)[C@H]2[C@@H]1[C@@H]1CC[C@H]2O1 (racemic)
Test System: Avena fatua (AVEFA)
Obs Value: 70

Compound: Cc1sc(-c2cccs2)nc1C1C(=O)[C@@H]2[C@H](C1=O)[C@H]1CC[C@@H]2O1 (stereo partly shown)
Test System: Avena fatua (AVEFA)
Obs Value: 0

====

- Tested on: Setaria faberi (SETFA)
- Assay Summary: Example A pre-emergence herbicidal activity, glasshouse pot test
- Type: in vivo
- Condition Parameters: Rate 500 g/ha, evaluated 19 or 20 days later, read-out: Pre-Emergence Activity SETFA (100=total damage to plant; 0=no damage to plant)
Items are presented alongside their recorded pest or weed control at 500 g/ha.

Compound: CCc1sc(-c2ccc(Cl)cc2)nc1C1C(=O)[C@@H]2[C@H](C1=O)[C@H]1CC[C@@H]2O1 (stereo partly drawn)
Unit Tag: %
pest or weed control at 500 g/ha: 100
//
Compound: Cc1nc(-c2cc(C3C(=O)[C@@H]4[C@H](C3=O)[C@H]3CC[C@@H]4O3)c(C)s2)cs1 (stereo partly drawn)
Unit Tag: %
pest or weed control at 500 g/ha: 0
//
Compound: Cc1sc(Br)cc1C1C(=O)[C@@H]2[C@H](C1=O)[C@H]1CC[C@@H]2O1 (stereo partly drawn)
Unit Tag: %
pest or weed control at 500 g/ha: 0
//
Compound: Cc1scc(Br)c1C1C(=O)[C@@H]2[C@H](C1=O)[C@H]1CC[C@@H]2O1 (stereo partly drawn)
Unit Tag: %
pest or weed control at 500 g/ha: 70
//
Compound: Cc1sc(-c2ccccn2)cc1C1C(=O)[C@@H]2[C@H](C1=O)[C@H]1CC[C@@H]2O1 (stereo partly drawn)
Unit Tag: %
pest or weed control at 500 g/ha: 0
//
Compound: Cc1sc(-c2ccc(Cl)cc2)cc1C1C(=O)[C@@H]2[C@H](C1=O)[C@H]1CC[C@@H]2O1 (stereo partly drawn)
Unit Tag: %
pest or weed control at 500 g/ha: 20

====

- System: Echinochloa crus-galli (ECHCG)
- Assay Summary: Example A pre-emergence herbicidal activity, glasshouse pot test
- Assay type: in vivo
- Condition Parameters: Rate 250 g/ha, evaluated 19 or 20 days later, read-out: Pre-Emergence Activity ECHCG (100=total damage to plant; 0=no damage to plant)

Compound: CCc1csc(CC)c1C1C(=O)[C@@H]2[C@H](C1=O)[C@H]1CC[C@@H]2O1 (stereo partly shown)
pest or weed control at 250 g/ha, %: 90
//
Compound: Cc1sc(-c2ccc(Cl)cc2)cc1C1=C(OC(=O)C(C)C)[C@@H]2[C@H](C1=O)[C@H]1CC[C@@H]2O1 (racemic) [Compound P2]
pest or weed control at 250 g/ha, %: 50
//
Compound: COc1ccc(-c2nc(C3C(=O)[C@@H]4[C@H](C3=O)[C@H]3CC[C@@H]4O3)c(C)s2)cc1 (stereo partly shown)
pest or weed control at 250 g/ha, %: 100
//
Compound: CCc1c(Br)sc(C)c1C1C(=O)[C@@H]2[C@H](C1=O)[C@H]1CC[C@@H]2O1 (stereo partly shown)
pest or weed control at 250 g/ha, %: 90
//
Compound: Cc1sc(-c2ccc(Cl)cc2)nc1C1C(=O)[C@@H]2[C@H](C1=O)[C@H]1CC[C@@H]2O1 (stereo partly shown)
pest or weed control at 250 g/ha, %: 100
//
Compound: CCc1sc(-c2ccc(Cl)cc2)nc1C1C(=O)[C@@H]2[C@H](C1=O)[C@@]1(C)CC[C@]2(C)O1 (stereo partly shown)
pest or weed control at 250 g/ha, %: 70
//
Compound: CCc1sc(-c2ccc(Cl)cc2)nc1C1C(=O)[C@H]2[C@@H]3CC[C@@](C)(O3)[C@H]2C1=O (mixture of isomers)
pest or weed control at 250 g/ha, %: 100
//
Compound: Cc1sc(-c2ccc(Cl)nc2)nc1C1C(=O)[C@@H]2[C@H](C1=O)[C@H]1CC[C@@H]2O1 (stereo partly shown)
pest or weed control at 250 g/ha, %: 80
//
Compound: Cc1sc(-c2ccc(Cl)cc2)nc1C1C(=O)[C@@H]2[C@H](C1=O)[C@@]1(C)CC[C@]2(C)O1 (stereo partly shown)
pest or weed control at 250 g/ha, %: 80
//
Compound: Cc1sc(-c2ccc(Cl)cc2)nc1C1C(=O)[C@H]2[C@@H]3CC[C@@](C)(O3)[C@H]2C1=O (mixture of isomers)
pest or weed control at 250 g/ha, %: 100
//
Compound: Cc1csc(C)c1C1C(=O)[C@@H]2[C@H](C1=O)[C@H]1CC[C@@H]2O1 (stereo partly shown)
pest or weed control at 250 g/ha, %: 30
//
Compound: Cc1sc(-c2ccc(Cl)cc2)cc1C1=C(OC(=O)C(C)(C)C)[C@@H]2[C@H](C1=O)[C@H]1CC[C@@H]2O1 (racemic) [Compound P1]
pest or weed control at 250 g/ha, %: 20
//
Compound: Cc1sc(-c2ccc(Br)cc2)nc1C1C(=O)[C@@H]2[C@H](C1=O)[C@H]1CC[C@@H]2O1 (stereo partly shown)
pest or weed control at 250 g/ha, %: 100
